# merged literature set: pIC50 with 72 kDa type IV collagenase (Homo sapiens, UniProt P08253)
pIC50: −log10 of the molar value.
READOUT NAME: pIC50

Reference set (4 entries):
# input Need pIC50 of O=C(O)[C@@H](Cc1ccccc1)NS(=O)(=O)c1ccc(C#Cc2ccc3ccccc3c2)s1 , thanks.
# output 6.09

# input Follow-up entry: Cc1ccc(-c2nc(-c3ccc(S(=O)(=O)N[C@H](C(=O)O)C(C)C)cc3)no2)s1
# output 7.32

# input Follow-up entry: O=C(NO)[C@H](CS(=O)(=O)c1ccc(Oc2ccccc2)cc1)N1CCCCC1
# output 9.70

# input Follow-up entry: CCCCCCCCCCN1CC(C(=O)O)N(S(=O)(=O)c2ccc(-c3ccc(Br)cc3)cc2)CC1=O (centres unmarked)
# output 6.85

I = O=C(O)[C@H]1[C@H](Cn2nnc3ccc(C(F)(F)F)cc3c2=O)CC[C@@H]1C(=O)c1ccc(OCc2ccc(F)cc2)cc1 (racemic)
II = CC(C)Oc1cccc(C#Cc2ccc(-c3ccc(S(=O)(=O)N[C@@H](C)C(=O)O)cc3)cc2)c1
# input Which value of pIC50 is numerically greater: that of I or that of II ? Write down the label of the entry you select.
# output I
(I: 7.38, II: 5.93)

I = CC(C)[C@@H](NS(=O)(=O)c1ccc(-c2noc(-c3ccc(Cl)cc3)n2)cc1)C(=O)O
II = O=C(C#Cc1ccccc1)Nc1ccc(-c2ccc(S(=O)(=O)N[C@H](Cc3ccccc3)C(=O)O)cc2)cc1
# input Which value of pIC50 is numerically greater: that of I or that of II ? Write down the label of the entry you select.
# output I
(I: 8.24, II: 6.78)

###

# merged literature set: pIC50 with 72 kDa type IV collagenase (Homo sapiens, UniProt P08253)
pIC50: −log10 of the molar value.
READOUT NAME: pIC50

Reference set (8 entries):
# input Request body: readout pIC50, system 72 kDa type IV collagenase (Homo sapiens, UniProt P08253), query CC(O)(CS(=O)(=O)c1ccc(NC(=O)c2ccc(Cl)nc2)cc1)C(=O)NO (stereo not drawn) . Return the value.
# output 8.17

# input Follow-up entry: Cc1cccc(C(=O)Nc2ccc(S(=O)(=O)CC(C)(O)C(=O)NO)cc2)c1 (stereo not drawn)
# output 7.70

# input Follow-up entry: Cc1ccc2nc(C)cc(COc3ccc(S(=O)(=O)CC(c4ccccc4C)N(O)C=O)cc3)c2c1 (stereo not drawn)
# output 4.15

# input Follow-up entry: Cc1cc(COc2ccc(S(=O)(=O)CC(C=C3CCN(C=O)CC3)N(O)C=O)cc2)c2ccccc2n1 (stereo not drawn)
# output 4.30

# input Follow-up entry: O=C(N[C@@H](CS(=O)(=O)c1ccc(Oc2ccccc2)cc1)C(=O)NO)c1ccncc1
# output 9.52

# input Follow-up entry: O=C(CC(CCn1nnc2ccccc2c1=O)C(=O)O)c1cc2cc(OCCc3ccc(Cl)cc3)ccc2o1 (racemic)
# output 5.34

# input Follow-up entry: COc1ccc(C(=O)Nc2ccc(-c3ccc(S(=O)(=O)N[C@H](Cc4ccccc4)C(=O)O)cc3)cc2)cc1
# output 6.62

# input Follow-up entry: CCC(C)[C@H](NS(=O)(=O)c1ccc(-c2ccc(NC(=O)c3ccc4ccccc4c3)cc2)cc1)C(=O)O (stereo partly drawn)
# output 6.61

I = O=C(CC(CCn1nnc2ccccc2c1=O)C(=O)O)c1noc2cc(OCc3cccnc3)ccc12 (racemic)
II = Cc1ccc(-c2noc(-c3ccc(S(=O)(=O)N[C@H](C)C(=O)O)cc3)n2)cc1
# input // select label with min value of measured pIC50 from [ I , II ] Write down the label of the entry you select.
# output I

###

# merged literature set: IC50 with 72 kDa type IV collagenase (Homo sapiens)
READOUT NAME: IC50 (µM)

Reference set (2 entries):
# input Need IC50 of Cc1cc(COc2ccc(S(=O)(=O)CC(C3CCOCC3)N(O)C=O)cc2)c2ccccc2n1 (stereo not shown) , thanks.
# output 24

# input Follow-up entry: Cc1cc(COc2ccc(S(=O)(=O)CC([C@H]3CSC(=O)N3C)N(O)C=O)cc2)c2ccccc2n1 (stereo partly shown)
# output 26

A = CCCCc1ccc(-c2nnn(-c3ccc(S(=O)(=O)N[C@@H](C(=O)O)C(C)C)cc3)n2)cc1
B = CCc1ccc(-c2nnn(-c3ccc(S(=O)(=O)N[C@H](C(=O)O)C(C)C)cc3)n2)cc1
C = Cc1cc(COc2ccc(S(=O)(=O)CC(CC3CCOCC3)N(O)C=O)cc2)c2ccccc2n1 (stereo not shown)
D = CC(C)[C@H](NS(=O)(=O)c1ccc(C#Cc2ccc3ccccc3c2)cc1)C(=O)O
# input Which order do these items take when sorted by rising IC50? List them. Answer by listing the labels in the order asked for.
# output A, B, D, C

###

# merged literature set: IC50 with 72 kDa type IV collagenase (Homo sapiens)
READOUT NAME: IC50 (µM)

Reference set (3 entries):
# input Request body: readout IC50, system 72 kDa type IV collagenase (Homo sapiens), query C[C@@H](NS(=O)(=O)c1ccc(-c2noc(-c3ccccn3)n2)s1)C(=O)O . Return the value.
# output 0.614

# input Follow-up entry: O=C(O)[C@@H](Cc1ccccc1)NS(=O)(=O)c1ccc(-n2nnc(-c3ccc(F)cc3)n2)cc1
# output 0.0414

# input Follow-up entry: CC(=O)N1CCC(C(=O)NC(CS(=O)(=O)c2ccc(Oc3ccccc3)cc2)C(=O)NO)CC1 (stereo not shown)
# output 0.0004

P = Cc1cc(COc2ccc(S(=O)(=O)CC(CCc3cccnc3)N(O)C=O)cc2)c2ccccc2n1 (stereo not shown)
Q = COc1ccc2cc(C#Cc3ccc(-c4ccc(S(=O)(=O)N[C@H](CCC(=O)O)C(=O)O)cc4)cc3)ccc2c1
# input Which value of IC50 is numerically greater: that of P or that of Q ? Write down the label of the entry you select.
# output P

###

# merged literature set: IC50 with 72 kDa type IV collagenase (Homo sapiens, UniProt P08253)
READOUT NAME: IC50 (nM)

Reference set (5 entries):
# input Need IC50 of O=C(O)[C@H](Cc1ccccc1)NS(=O)(=O)c1ccc(-c2noc(-c3ccc4c(c3)OCO4)n2)cc1 , thanks.
# output 20.2

# input Follow-up entry: O=C(Nc1ccc(-c2ccc(S(=O)(=O)N[C@H](Cc3ccccc3)C(=O)O)s2)cc1)c1ccc2ccccc2c1
# output 292

# input Follow-up entry: COCc1cc(COc2ccc(S(=O)(=O)CC(C=C3CCC(=O)CC3)N(O)C=O)cc2)cc(C)n1 (centres unmarked)
# output 50000

# input Follow-up entry: O=C(O)[C@H]1[C@H](Cn2nnc3ccccc3c2=O)CC[C@@H]1C(=O)c1ccc(OCCC2CCOCC2)cc1 (stereo in doubt)
# output 360

# input Follow-up entry: CN(C)c1cc([N+](=O)[O-])c(O)c2c1CC1CC3C(N(C)C)C(O)=C(C(N)=O)C(=O)C3(O)C(O)=C1C2=O (centres unmarked)
# output 421000

1 = CC(=O)N[C@@H](CS(=O)(=O)c1ccc(Sc2ccccc2)cc1)C(=O)NO
2 = Cc1cc(COc2ccc(S(=O)(=O)CC(CCC3=CCCC(OC=O)C3)N(O)C=O)cc2)c2ccccc2n1 (centres unmarked)
# input Which value of IC50 is numerically greater: that of 1 or that of 2 ? Write down the label of the entry you select.
# output 2

###

# merged literature set: IC50 with 72 kDa type IV collagenase (Homo sapiens, UniProt P08253)
READOUT NAME: IC50 (µM)

# input Need IC50 of Cc1ccc(-c2nc(-c3ccc(S(=O)(=O)N[C@H](Cc4ccccc4)C(=O)O)s3)no2)s1 , thanks.
# output 0.0265

# input Follow-up entry: CON=C1CCC(C(CS(=O)(=O)c2ccc(OCc3cc(C)nc4ccccc34)cc2)N(O)C=O)CC1 (centres unmarked)
# output 30

# input Follow-up entry: CC(C)[C@H](NS(=O)(=O)c1ccc(C#Cc2ccc3ccccc3c2)s1)C(=O)O
# output 2.23

# input Follow-up entry: C[C@H]1c2c(N)ccc(O)c2C(=O)C2=C(O)[C@]3(O)C(=O)C(C(N)=O)=C(O)C[C@@H]3[C@@H](O)[C@@H]21
# output 1930

# input Follow-up entry: C[C@@H](NS(=O)(=O)c1ccc(-c2noc(-c3ccccc3)n2)cc1)C(=O)O
# output 0.045

a = CC(C)(CS(=O)(=O)c1ccc(Oc2ccccc2)cc1)[C@H](O)C(=O)NO
b = COc1ccc2cc(C#Cc3ccc(-c4ccc(S(=O)(=O)N[C@H](Cc5ccc(O)cc5)C(=O)O)cc4)cc3)ccc2c1
c = Cc1ccc(-c2nc(-c3ccc(S(=O)(=O)N[C@H](C)C(=O)O)cc3)no2)cc1
# input Which order do these items take when sorted by rising IC50? List them. Answer by listing the labels in the order asked for.
# output a, c, b

I = CCCCCCCOc1ccc2oc(C(=O)CC(CCn3nnc4ccccc4c3=O)C(=O)O)cc2c1 (racemic)
II = COc1ccc(S(=O)(=O)N2[C@H](C(=O)NO)C[C@@H]3CCN(C(=O)C4CCCC4)C[C@@H]32)cc1 (relative stereo)
# input // select label with min value of measured IC50 from [ I , II ] Write down the label of the entry you select.
# output II
(II: 0.79 µM, I: 4.4 µM)

a = COCc1cc(COc2ccc(S(=O)(=O)CC(c3ccccc3C)N(O)C=O)cc2)cc(C)n1 (centres unmarked)
b = CC(=O)Nc1ccc2c(c1O)C(=O)C1=C(O)C3(O)C(=O)C(C(N)=O)=C(O)C(N(C)C)C3C(O)C1C2C (centres unmarked)
c = COc1ccc(CCC(CS(=O)(=O)c2ccc(OCc3cc(C)nc4ccccc34)cc2)N(O)C=O)cc1 (centres unmarked)
d = CCc1ccc(-c2nc(-c3ccc(S(=O)(=O)NCC(=O)O)s3)no2)cc1
e = CC(C)(CS(=O)(=O)c1ccc(Oc2ccccc2)cc1)[C@H](OCc1cccnc1)C(=O)NO
# input # rank_down: sort by IC50, max first Answer by listing the labels in the order asked for.
# output b, a, c, d, e
(b: 215 µM, a: 12 µM, c: 4.2 µM, d: 0.0126 µM, e: 0.0022 µM)

1 = CC(=O)N1CCC(CC(CS(=O)(=O)c2ccc(OCc3cc(C)nc4ccccc34)cc2)N(O)C=O)CC1 (centres unmarked)
2 = Cc1ccc(NC(=O)Nc2ccc(S(=O)(=O)CC(C)(O)C(=O)NO)cc2)cc1 (centres unmarked)
3 = CC(C)(CS(=O)(=O)c1ccc(Oc2ccccc2)cc1)[C@@H](O)C(=O)NO
# input Which order do these items take when sorted by rising IC50? List them. Answer by listing the labels in the order asked for.
# output 3, 2, 1
(3: 0.002 µM, 2: 0.034 µM, 1: 9 µM)

a = O=C(CC(CCn1nnc2ccccc2c1=O)C(=O)O)c1cc2ccc(OCCc3ccccc3)cc2o1 (racemic)
b = Cc1ccc(-c2nc(-c3ccc(S(=O)(=O)N[C@@H](CC(C)C)C(=O)O)cc3)no2)cc1
# input // select label with min value of measured IC50 from [ a , b ] Write down the label of the entry you select.
# output b
